# credit: PubChem BioAssay AID504324

# EXPERIMENT_NOTES: HRE-luciferase induction in zinc-containing medium – U2OS HRE-luc cells, dry powder, mechanism study for HIF pathway activator project, dose response (AID 504324)
# SETTINGS: U2OS HRE-luciferase reporter, zinc medium, luminescence; at 38 µM (top of the series)
Assign 1 whenever activity change, negative = decrease does not fall below 4000%; assign -1 whenever it does.

Observe how each entry below is paired with its result.
# COMPOUND, CATEGORY_LABEL
data = [
    ("O=C(NCCN1CCCCC1)c1cc(-c2ccccc2)on1", -1),
    ("Cn1c(-c2ccccc2)cnc1NC(=O)c1cc(-c2ccccc2)on1", -1),
]

Would you kindly look at the next entry?
Hello, I need to know if `CC(C)(C)c1ccc(CNc2nc(-c3ccccn3)nnc2-c2ccccc2)cc1` has measured activity change, negative = decrease not below 4000%. Thanks!
-1

###

# EXPERIMENT_NOTES: HRE-luciferase induction in zinc-containing medium – U2OS HRE-luc cells, dry powder, mechanism study for HIF pathway activator project, dose response (AID 504324)
# SETTINGS: U2OS HRE-luciferase reporter, zinc medium, luminescence; at 38 µM (top of the series)
Each record gets a class by activity change, negative = decrease: I (below 30%), II (30% to below 5000%), III (5000% or more)

These solved cases illustrate the format of a correct answer.
# CHEM_SMILES, CATEGORY_LABEL
records = [
    ("Cc1ccc(Nc2nc(-c3ccccn3)nnc2-c2ccccc2)cn1", "II"),
    ("Oc1ccc(CN2CCC(Cc3ccccc3)CC2)c2cccnc12", "I"),
    ("O=C(Nc1cnc2ccccc2c1)c1cc(-c2ccccc2)on1", "I"),
    ("O=C(Nc1nnc(-c2ccccc2)s1)c1cc(-c2ccccc2)on1", "I"),
    ("Cn1c(-c2ccccc2)cnc1Nc1nc(-c2ccccn2)nnc1-c1ccccc1", "II"),
]

Note: attention shifts to another entry.
Kindly state the category for this compound: `O=C(Nc1nc(-c2ccccc2)cs1)c1cc(-c2ccccc2)on1`
I

###

Listing of entries alongside the reported activity change, negative = decrease.
# EXPERIMENT_NOTES: HRE-luciferase induction in zinc-containing medium – U2OS HRE-luc cells, dry powder, mechanism study for HIF pathway activator project, dose response (AID 504324)
# SETTINGS: U2OS HRE-luciferase reporter, zinc medium, luminescence; at 38 µM (top of the series)
API: value field is a number in %; no unit string.

Some solved entries appear below for comparison.
# COMPOUND, activity change, negative = decrease / %
records = [
    ("Cc1cccc(CNC(=O)c2cc(-c3ccccc3)on2)c1", -6.77),
    ("C[C@H](Nc1nc(-c2ccccn2)nnc1-c1ccccc1)C1CCCCC1", 5570),
    ("OCC1CCN(Cc2ccc(O)c3ncccc23)CC1", 29.9),
    ("c1ccc(-c2nnc(-c3ccccn3)nc2N2CCN(c3ccncc3)CC2)cc1", 4830),
    ("c1ccc(-c2nnc(-c3ccccn3)nc2N2CCC(C3CCCCC3)C2)cc1 (stereo not given)", 4900),
    ("O=C(c1cc(-c2ccccc2)on1)N1CCN(c2ccncc2)CC1", -13.1),
]

activity change, negative = decrease recorded for this compound, `c1ccc(-c2nnc(Nc3nc(-c4ccccn4)nnc3-c3ccccc3)s2)cc1` , is 161

The compound identified as `O=C(NCC1CC1)c1cc(-c2ccccc2)on1` registered its activity change, negative = decrease at 798

Consider `c1ccc(-c2nnc(-c3ccccn3)nc2NCC2CCOCC2)cc1` . Its measured activity change, negative = decrease is 3680

###

# EXPERIMENT_NOTES: HRE-luciferase induction in zinc-containing medium – U2OS HRE-luc cells, dry powder, mechanism study for HIF pathway activator project, dose response (AID 504324)
# SETTINGS: U2OS HRE-luciferase reporter, zinc medium, luminescence; at 38 µM (top of the series)
Threshold-based label: activity change, negative = decrease under 2000% gives Condition met, activity change, negative = decrease not under 2000% gives Condition not met.

Here are 4 compounds together with their reported answers.
# COMPOUND, CATEGORY_LABEL
records = [
    ("O=C(c1cc(-c2ccccc2)on1)N1CCC(CO)CC1", "Condition met"),
    ("Cc1ccc(CNc2nc(-c3ccccn3)nnc2-c2ccccc2)cc1", "Condition not met"),
    ("CN1CCN(c2nc(-c3ccccn3)nnc2-c2ccccc2)CC1", "Condition met"),
    ("c1ccc(-c2nnc(-c3ccccn3)nc2NCC2CC2)cc1", "Condition not met"),
]

Item c1ccc(-c2nnc(-c3ccccn3)nc2N2CCC(c3ccccc3)C2)cc1 (stereo not drawn) : activity change, negative = decrease beneath 2000%, strictly?
Condition not met

Threshold test, activity change, negative = decrease < 2000%: `Cc1ccccc1CNc1nc(-c2ccccn2)nnc1-c1ccccc1`
Condition not met

Lab note: activity change, negative = decrease threshold 2000%. Does this compound come in strictly under it? `CCCCNC(=O)c1cc(-c2ccccc2)on1`
Condition met

Problem: For the compound `Cc1ccc(NC(=O)c2cc(-c3ccccc3)on2)cn1` , is activity change, negative = decrease under 2000%?
Condition met

###

Reported values of activity change, negative = decrease for individual entries
# EXPERIMENT_NOTES: HRE-luciferase induction in zinc-containing medium – U2OS HRE-luc cells, dry powder, mechanism study for HIF pathway activator project, dose response (AID 504324)
# SETTINGS: U2OS HRE-luciferase reporter, zinc medium, luminescence; at 38 µM (top of the series)
State the answer as a number, implicitly in %.

# CHEM_SMILES, OBSERVATION_TYPE, NUMBER
records = [
    ("Clc1cccc(CNc2nc(-c3ccccn3)nnc2-c2ccccc2)c1", "activity change, negative = decrease", 4600),
    ("Cc1cccc(CNc2nc(-c3ccccn3)nnc2-c2ccccc2)c1", "activity change, negative = decrease", 6280),
    ("c1ccc(-c2nnc(-c3ccccn3)nc2NCC2CCCCC2)cc1", "activity change, negative = decrease", 8340),
    ("O=C(NCCCN1CCOCC1)c1cc(-c2ccccc2)on1", "activity change, negative = decrease", 1480),
]

Now look at this one.
The molecule listed as `c1ccc(-c2ccc(CNc3nc(-c4ccccn4)nnc3-c3ccccc3)cc2)cc1` has a reported activity change, negative = decrease of 3920

###

# EXPERIMENT_NOTES: HRE-luciferase induction in zinc-containing medium – U2OS HRE-luc cells, dry powder, mechanism study for HIF pathway activator project, dose response (AID 504324)
# SETTINGS: U2OS HRE-luciferase reporter, zinc medium, luminescence; at 38 µM (top of the series)
OBSERVATION_TYPE: activity change, negative = decrease (%)
Give the value in % but do not write % after it.

Here are 5 molecules together with their reported answers.
# CHEM_SMILES, NUMBER
records = [
    ("Cc1cccc(Nc2nc(-c3ccccn3)nnc2-c2ccccc2)n1", 4620),
    ("O=C(NC1Cc2ccccc2C1)c1cc(-c2ccccc2)on1", 146),
    ("O=C(NCCCn1ccnc1)c1cc(-c2ccccc2)on1", 1800),
    ("c1ccc(-c2nnc(-c3ccccn3)nc2NCc2ccccn2)cc1", 3330),
    ("COc1cccc(CNc2nc(-c3ccccn3)nnc2-c2ccccc2)c1", 4540),
]

In the following, a different molecule is considered.
Recorded result, `OCCCNc1nc(-c2ccccn2)nnc1-c1ccccc1` , activity change, negative = decrease: 3730

###

Property: activity change, negative = decrease; scope: individual compounds
# EXPERIMENT_NOTES: HRE-luciferase induction in zinc-containing medium – U2OS HRE-luc cells, dry powder, mechanism study for HIF pathway activator project, dose response (AID 504324)
# SETTINGS: U2OS HRE-luciferase reporter, zinc medium, luminescence; at 38 µM (top of the series)
Report the value in % with no unit label.

See these solved cases before continuing.
# CHEM_SMILES, U, activity change, negative = decrease
records = [
    ("CC(C)(C)OC(=O)N1CCN(Cc2ccc(O)c3ncccc23)CC1", "%", 28.3),
    ("c1ccc(CNc2nc(-c3ccccn3)nnc2-c2ccccc2)cc1", "%", 5410),
    ("c1ccc(-c2nnc(-c3ccccn3)nc2NCc2cccnc2)cc1", "%", 3620),
]

get_value(item= `C=CCNc1nc(-c2ccccn2)nnc1-c1ccccc1` , readout=activity change, negative = decrease) returns 5230
